- target entity: PI3K-γ (Homo sapiens, UniProt P48736)
- Sequence (P48736 whole entry, species assumed): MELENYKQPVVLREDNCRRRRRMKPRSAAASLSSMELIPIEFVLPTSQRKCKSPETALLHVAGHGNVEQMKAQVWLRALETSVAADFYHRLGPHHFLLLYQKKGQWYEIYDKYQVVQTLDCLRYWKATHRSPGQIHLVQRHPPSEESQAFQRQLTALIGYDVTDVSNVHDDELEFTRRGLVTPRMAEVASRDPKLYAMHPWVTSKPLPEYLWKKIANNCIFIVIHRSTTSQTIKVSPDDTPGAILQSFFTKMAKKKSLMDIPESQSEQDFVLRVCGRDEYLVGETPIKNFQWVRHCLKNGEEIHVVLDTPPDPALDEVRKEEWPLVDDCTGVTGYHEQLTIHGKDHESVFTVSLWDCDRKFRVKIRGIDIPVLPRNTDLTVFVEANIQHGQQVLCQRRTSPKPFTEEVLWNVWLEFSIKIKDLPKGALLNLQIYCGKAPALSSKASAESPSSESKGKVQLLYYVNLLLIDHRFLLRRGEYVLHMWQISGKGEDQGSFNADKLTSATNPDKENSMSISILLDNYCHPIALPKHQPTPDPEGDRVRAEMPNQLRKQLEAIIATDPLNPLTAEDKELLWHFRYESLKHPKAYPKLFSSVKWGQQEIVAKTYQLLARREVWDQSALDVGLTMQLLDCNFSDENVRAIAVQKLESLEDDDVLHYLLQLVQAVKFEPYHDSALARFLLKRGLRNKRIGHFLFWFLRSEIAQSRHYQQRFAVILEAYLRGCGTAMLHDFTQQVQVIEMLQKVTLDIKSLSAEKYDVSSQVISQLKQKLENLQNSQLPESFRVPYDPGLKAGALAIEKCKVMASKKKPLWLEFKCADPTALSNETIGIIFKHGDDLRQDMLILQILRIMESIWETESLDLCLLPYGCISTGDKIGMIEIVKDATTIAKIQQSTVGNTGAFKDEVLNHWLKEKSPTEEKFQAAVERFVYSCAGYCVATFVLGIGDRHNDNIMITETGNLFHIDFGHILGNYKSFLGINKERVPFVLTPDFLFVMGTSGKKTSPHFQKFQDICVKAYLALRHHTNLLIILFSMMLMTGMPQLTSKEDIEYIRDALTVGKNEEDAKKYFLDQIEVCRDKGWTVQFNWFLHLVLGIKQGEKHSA
- assay remarks: PI3K-gamma fluorescence polarization assay
- test settings: read-out: IC50 PI3Kγ
Assignment: determine reported IC50 for the given compounds.
Answer in nM, number only, no unit symbol.

Input: Form field: reported IC50 of COCCNC(=O)c1ccc(NC(=O)Nc2ccc(-c3nc(N4CCOCC4)nc(N4C5CCCC4COC5)n3)cc2)cc1 [Example 797]
Output: 76

Input: Form field: reported IC50 of O=C(Nc1ccncc1)Nc1ccc(-c2nc(N3CC4CCC(C3)O4)nc(N3[C@H](CO)CC[C@@H]3CO)n2)cc1 [Example 667]
Output: 1080

Input: Form field: reported IC50 of CC(C)(C)OC(=O)N1CC(Nc2nc(-c3ccc(NC(=O)Nc4ccc(F)cc4)cc3)nc(N3CCOCC3)n2)C1 [Example 13]
Output: 879

Input: Form field: reported IC50 of O=C(Nc1ccc(F)cc1)Nc1ccc(-c2nc(N3CCOCC3)nc(N3C4CCC3COC4)n2)cc1 [Example 37]
Output: 155

Input: Form field: reported IC50 of COC(=O)c1ccc(NC(=O)Nc2ccc(-c3nc(N4CCOCC4)nc(N4C5COCC4COC5)n3)cc2)cc1 [Example 770]
Output: 99

----------
Assignment: determine reported pIC50 for the given compounds.
- target entity: UniProt:P42336
- Sequence (P42336 whole entry, species assumed): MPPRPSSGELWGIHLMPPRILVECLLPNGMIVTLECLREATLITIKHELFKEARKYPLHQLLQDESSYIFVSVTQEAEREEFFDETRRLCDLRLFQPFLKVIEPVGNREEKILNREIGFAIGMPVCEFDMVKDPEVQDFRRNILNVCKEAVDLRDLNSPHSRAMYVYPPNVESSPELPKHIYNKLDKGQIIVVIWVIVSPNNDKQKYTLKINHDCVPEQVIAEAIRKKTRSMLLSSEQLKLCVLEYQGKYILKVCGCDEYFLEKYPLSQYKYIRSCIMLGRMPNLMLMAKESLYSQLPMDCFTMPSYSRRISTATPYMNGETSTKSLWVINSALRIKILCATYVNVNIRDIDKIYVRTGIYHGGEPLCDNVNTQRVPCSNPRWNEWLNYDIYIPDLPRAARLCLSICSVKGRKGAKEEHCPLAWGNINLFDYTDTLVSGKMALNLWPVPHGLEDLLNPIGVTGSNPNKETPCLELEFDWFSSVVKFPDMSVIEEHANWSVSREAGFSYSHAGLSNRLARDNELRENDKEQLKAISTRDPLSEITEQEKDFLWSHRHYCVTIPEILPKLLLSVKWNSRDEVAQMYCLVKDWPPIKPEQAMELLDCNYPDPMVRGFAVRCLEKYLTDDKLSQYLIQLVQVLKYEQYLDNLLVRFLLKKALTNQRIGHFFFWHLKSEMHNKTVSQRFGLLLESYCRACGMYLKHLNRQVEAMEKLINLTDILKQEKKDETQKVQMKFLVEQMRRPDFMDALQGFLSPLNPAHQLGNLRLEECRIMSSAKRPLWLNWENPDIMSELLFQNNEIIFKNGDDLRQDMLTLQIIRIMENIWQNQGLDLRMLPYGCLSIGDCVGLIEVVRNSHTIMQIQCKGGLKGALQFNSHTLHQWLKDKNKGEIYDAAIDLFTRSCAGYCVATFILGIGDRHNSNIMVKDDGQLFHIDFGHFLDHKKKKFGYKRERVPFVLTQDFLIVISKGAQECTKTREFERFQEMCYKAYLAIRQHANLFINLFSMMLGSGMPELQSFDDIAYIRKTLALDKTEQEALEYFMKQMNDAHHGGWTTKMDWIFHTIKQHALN
- Sequence (P27986 whole entry partner, species assumed): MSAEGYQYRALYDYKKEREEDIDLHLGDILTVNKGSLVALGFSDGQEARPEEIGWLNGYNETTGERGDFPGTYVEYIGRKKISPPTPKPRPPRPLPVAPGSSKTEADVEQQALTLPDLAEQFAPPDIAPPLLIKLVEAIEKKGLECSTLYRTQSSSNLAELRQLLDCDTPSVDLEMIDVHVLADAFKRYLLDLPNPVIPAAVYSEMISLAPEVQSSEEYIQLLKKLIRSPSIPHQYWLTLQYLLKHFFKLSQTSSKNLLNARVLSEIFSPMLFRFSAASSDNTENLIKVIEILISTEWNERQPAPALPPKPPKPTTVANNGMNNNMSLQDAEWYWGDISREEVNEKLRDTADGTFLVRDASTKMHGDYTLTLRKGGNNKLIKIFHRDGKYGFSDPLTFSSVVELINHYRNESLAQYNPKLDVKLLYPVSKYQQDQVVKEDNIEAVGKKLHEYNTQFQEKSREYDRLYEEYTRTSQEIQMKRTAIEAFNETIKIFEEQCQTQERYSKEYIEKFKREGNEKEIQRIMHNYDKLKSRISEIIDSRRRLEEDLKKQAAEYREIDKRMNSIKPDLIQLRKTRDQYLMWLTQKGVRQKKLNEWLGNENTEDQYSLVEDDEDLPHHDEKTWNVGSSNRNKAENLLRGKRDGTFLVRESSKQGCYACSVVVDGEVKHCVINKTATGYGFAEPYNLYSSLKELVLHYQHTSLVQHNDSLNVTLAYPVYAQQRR
- assay remarks: PI3K-alpha fluorescence polarization assay
- test settings: read-out: IC50 PI3Kα
Answer as the number alone; pIC50 is minus log10 of concentration in mol/L.

Input: Form field: reported pIC50 of CC(C)Nc1nc(-c2ccc(NC(=O)NCCO)cc2)nc(N2CC3CCC(C2)O3)n1
Output: 5.57

Input: Form field: reported pIC50 of C[C@H]1COCCN1c1nc(-c2ccc(NC(=O)Nc3ccc(C(=O)N4CCCC4)cc3)cc2)nc(N2CCOC[C@@H]2C)n1
Output: 7.68

Input: Form field: reported pIC50 of CCS(=O)(=O)N1CCN(c2nc(-c3ccc(NC(=O)Nc4ccc(C(=O)NCCCN(C)C)cc4)cc3)nc(N3CCOCC3)n2)CC1
Output: 8.39

Input: Form field: reported pIC50 of CC(=O)c1ccc(NC(=O)Nc2ccc(-c3nc(N4CCOCC4)nc(N4C[C@H]5C[C@@H]4CN5C(=O)OC(C)(C)C)n3)cc2)cc1
Output: 7.05

Input: Form field: reported pIC50 of O=C(Nc1ccccc1)Nc1ccc(-c2nc(N3CCOCC3)nc(N3CC4CCC(C3)O4)n2)cc1
Output: 7.74

Input: Form field: reported pIC50 of O=C(Nc1ccc(-c2nc(N3CC4CCC(C3)O4)nc(N3CC4CNCC(C3)O4)n2)cc1)Nc1cccnc1
Output: 5.49

Input: Form field: reported pIC50 of CC(C)NCCCc1nc(-c2ccc(NC(=O)Nc3ccncc3)cc2)nc(N2CCOCC2)n1
Output: 7.34

Input: Form field: reported pIC50 of CCc1nc(-c2ccc(NC(=O)Nc3ccc(C(=O)N4CCN(c5ccccn5)CC4)cc3)cc2)nc(N2CCOCC2)n1
Output: 8.68

Input: Form field: reported pIC50 of O=C(Nc1ccc(C(=O)N2CCC(N3CCCCC3)CC2)cc1)Nc1ccc(-c2nc(N3CCOCC3)nc(N3C4COCC3COC4)n2)cc1
Output: 8.40

Input: Form field: reported pIC50 of CC(C)N(C)c1nc(-c2ccc(NC(=O)Nc3ccc(CN(C)C)cc3)cc2)nc(N2C3CCC2COC3)n1
Output: 5.61

Input: Form field: reported pIC50 of CN(C)CCN(C)C(=O)Nc1ccc(NC(=O)Nc2ccc(-c3nc(N4CCOCC4)nc(N4CCOCC4)n3)cc2)cc1
Output: 9.40

Input: Form field: reported pIC50 of CN(C)CCNC(=O)c1ccc(NC(=O)Nc2ccc(-c3nc(N4CCOCC4)nc(N4CC5CCC4CO5)n3)cc2)cc1 (stereo not drawn)
Output: 8.72

Input: Form field: reported pIC50 of CCc1nc(-c2ccc(NC(=O)Nc3ccc(C(=O)NCc4ccncc4)cc3)cc2)nc(N2CCOCC2)n1
Output: 7.60

Input: Form field: reported pIC50 of Cc1ccc(-c2nc(-c3ccc(NC(=O)Nc4ccc(C(=O)NCCN5CCCC5)cc4)cc3)nc(N3CCOCC3)n2)cc1
Output: 7.40

Input: Form field: reported pIC50 of CCN1CCN(C(=O)c2ccc(NC(=O)Nc3ccc(-c4nc(N5CCOCC5)nc(N5CCOC[C@@H]5C)n4)cc3)cc2)CC1
Output: 8.40

Input: Form field: reported pIC50 of CC(C)c1nc(-c2ccc(NC(=O)Nc3ccc(C(=O)Nc4cccnc4)cc3)cc2)nc(N2CCOCC2)n1
Output: 7.85

Input: Form field: reported pIC50 of CC(C)Cc1nc(-c2ccc(NC(=O)Nc3ccc(C(=O)N4CCC(N(C)C)CC4)cc3)cc2)nc(N2CCOCC2)n1
Output: 8.54

Input: Form field: reported pIC50 of Cc1ccc(NC(=O)Nc2ccc(-c3nc(NC4CNC4)nc(N4CCOCC4)n3)cc2)cc1
Output: 7.39

Input: Form field: reported pIC50 of O=C(Nc1ccc(-c2nc(N3CCOCC3)nc(N3C4CCC3COC4)n2)cc1)Nc1ccnc(Cl)c1
Output: 7.63

Input: Form field: reported pIC50 of O=C(Nc1ccncc1)Nc1ccc(-c2nc(N3CCOCC3)nc(N3CC4CNCC(C3)O4)n2)cc1
Output: 7.01

Input: Form field: reported pIC50 of CC(=O)N1CCN(c2nc(-c3ccc(NC(=O)Nc4ccncc4)cc3)nc(N3CC4CCC(C3)O4)n2)CC1
Output: 6.94
